# Test system: SK-MEL-28
# protocol_notes: NCI tumour cell line growth inhibition, 48 h
Active and inactive are the calls of the source. No stated cut-off is given here; in the data, active = GI50 up to about 1.1 µM and inactive = higher.
Outcome codes: active, inactive

| molecule | class_label |
| --- | --- |
| O=C(c1ccccc1)N1CCN2CCN=C(c3ccccc3)C21c1ccccc1 (stereo not drawn) | inactive |
| O=[N+]([O-])c1ccc(NN/N=N/c2ccc(-c3nc4ccccc4s3)cc2)c([N+](=O)[O-])c1 | inactive |
| COC1=C2C[C@H](O)C(C)C[C@@]2(OC)OC1=O (stereo partly drawn) | inactive |
| CCOC(=O)C12CCC(c3c(C)cccc3C)(O1)C(C(=O)OC)=C2C(=O)OC (stereo not drawn) | inactive |
| O=C(c1ccccc1)c1ccc2c(c1)nc1n2C(c2c(F)cccc2F)SC1 (stereo not drawn) | inactive |
| Cc1ccc(S(=O)(=O)N2CCC(=O)c3cc(Br)ccc32)cc1 | inactive |
| CCN(CC)C(=S)Nc1ccc(-c2cc3ccc(O)cc3oc2=O)cc1 | inactive |
| C1=CN2C[n+]3cccc(OCc4ccccc4)c3N=C2C(OCc2ccccc2)=C1 | inactive |
| CCC1OC(=O)C(C)C(OC2CC(C)(O)C(O)C(C)O2)C(C)C(O)C(C)(O)CC(C)C(=O)C(C)C(O)C1C (stereo not drawn) | inactive |
| N#CCc1nc(-c2cc3ccc(O)cc3oc2=O)cs1 | inactive |
| N/C(=N\c1ccc(Cl)cc1)c1ccccc1N | inactive |
| CN(C)C(=O)C(F)(F)C(c1ccc(C(F)(F)F)cc1)C1C(=O)N(C)C(=O)N(C)C1=O (stereo not drawn) | inactive |
| CCN(CC)CCNc1ccc2ncn3c4ccc(O)cc4c(=O)c1c23 | inactive |
| Nn1c(Nc2ccc(S(N)(=O)=O)cc2)nnc(/C=C/c2c(O)ccc3ccccc23)c1=O | inactive |
| CC1C[C@H](C)CC(C(O)CC2CC(=O)N(Cc3ccccc3)C(=O)C2)C1O (stereo partly drawn) | inactive |
| CN(C)CCN(/C(=N/c1ccccc1)N1CCCC1)c1ccccc1 | inactive |
| O=[N+]([O-])c1ccc2c(c1)N=C1OC(c3c[nH]c4ccc(COc5ccccc5)cc34)C(O)=C1N2 (stereo not drawn) | inactive |
| CC(C)C1CNC(=O)C2(/C=N/C(C(C)C)CNC(=O)C3(/C=N/1)CCCO3)CCCO2 (stereo not drawn) | inactive |
| CN1N(c2ccccc2)C(=O)C2=NC=C(C(=O)c3ccccc3)C(=N)C21C (stereo not drawn) | inactive |
| CC1=C(O)/C(=C/C(C)CCC/C(C)=C/C=C/C(C)CCCc2ccoc2)OC1=O (stereo not drawn) | inactive |
| COC(=O)c1cc2ccc(OC(C)=O)c(OC(C)=O)c2cn1 | inactive |
| COCc1cc2c(s1)C(=O)C1=C(C2=O)C2(C=C(Br)C(=O)C(Br)=C2)CCN1 | inactive |
| N#Cc1c(C#N)c(SSc2c(C#N)c(C#N)c(N)n2-c2ccccc2)n(-c2ccccc2)c1N | inactive |
| COc1cc2c(cc1OCCCCOc1cc3c(cc1OC)C(=O)N1CCC[C@H]1C(=O)N3)N=C[C@@H]1CCCN1C2=O | inactive |
| COc1cccc(C(=O)Oc2ccc(OS(=O)(=O)c3ccc(C)cc3)cc2)c1C#N | inactive |
| O=C(O)c1cc(CCc2cc(O)ccc2O)ccc1O | inactive |
| O=c1[nH]c2ccc(C(F)(F)F)cc2nc1-c1ccccc1 | inactive |
| CCCCN1C(=O)CC2[C@@H]3CCc4cc(OC)ccc4C3CC[C@]2(C)C1=O (stereo partly drawn) | inactive |
| Nc1ccccc1C(=O)CC1OC(=O)c2ccccc21 (stereo not drawn) | inactive |
| Cc1ncc(COP(=O)(O)O)c(C)c1O | inactive |
| C/C(=N\N=C(\N)SB(F)F)c1ccc2ccccc2c1 | inactive |
| CN(O)C(=O)c1cccc(Cl)c1 | inactive |
| COc1ccc2nc3cc(Cl)ccc3c(NCCCN(CCCl)CCCl)c2c1 | active |
